System: Luciferase-encoding HCMV (AD169 strain)
protocol.notes: microbe, parasite or virus in culture
Type: cell-based
measurement.context: Human betaherpesvirus 5, AD169, 72 h, read-out: CMV-Luc Cellular EC50, NN-NHDF cells, MOI of 1, 72 hrs
metric: pEC50
pEC50 here: minus log base 10 of the concentration, concentration in moles per litre.

# annotated cases, reported pEC50 shown
>>> endpoint_result("Cn1nc(C(=O)NCc2ccc(Cl)cc2)c2c1C(=O)N(CC1(S(=O)(=O)C3(C(O)CO)CC3)CC1)CC2 (single isomer, unassigned)")
7.72
>>> endpoint_result("Cn1nc(C(=O)NCc2ccc(C#N)cc2)c2c1C(=O)N(CC1(S(=O)(=O)C(C)(C)COCCO)CC1)CC2")
7.36
>>> endpoint_result("CC(N)COCC(C)(C)S(=O)(=O)C1(CN2CCc3c(C(=O)NCc4ccc(C#N)cc4)nn(C)c3C2=O)CC1 (single isomer, unassigned)")
7.89

INPUT: Given the compound N#Cc1ccc(CNC(=O)c2n[nH]c3c2CCN(CC2(S(=O)(=O)C4CC4)CC2)C3=O)cc1 , what is its reported pEC50?
OUTPUT: 6.84

INPUT: Given the compound Cn1nc(C(=O)NCc2ccc(C#N)cc2)c2c1C(=O)N(CC1(S(=O)(=O)C(C)(C)[C@H](O)CO)CC1)CC2 , what is its reported pEC50?
OUTPUT: 7.66

FYI, the data here is from patent US20250353820A1.
